TEST TARGET: HLA-B*35:01
PROTOCOL DESCRIPTION: IEDB peptide-MHC binding, purified MHC/direct/fluorescence; filed as Kd, often an IC50 or EC50 that approximates it; bounds were set here for any values at or beyond the usual limits of such assays
ASSAY CONDITIONS: source organism: Corynebacterium glutamicum
RECORDED ENDPOINT: pKd
Scale for pKd: -log10 of concentration given in mol/L; no unit attached.

Tested system HLA-B*35:01; pKd recorded for "VQLQEYDTY" was 6.42

====

TEST TARGET: HLA-A*01:01
PROTOCOL DESCRIPTION: IEDB peptide-MHC binding, purified MHC/competitive/radioactivity; filed as Kd, often an IC50 or EC50 that approximates it; bounds were set here for any values at or beyond the usual limits of such assays
ASSAY CONDITIONS: source organism: Hepacivirus hominis
RECORDED ENDPOINT: Kd (nM)
Answer in nM, number only, no unit symbol.

For record "RNWAHSSL" the listed Kd is 2200

====

TEST TARGET: HLA-A*30:01
PROTOCOL DESCRIPTION: IEDB peptide-MHC binding, purified MHC/direct/fluorescence; filed as Kd, often an IC50 or EC50 that approximates it; bounds were set here for any values at or beyond the usual limits of such assays
ASSAY CONDITIONS: source organism: Salmonella enterica subsp. enterica serovar Typhimurium
RECORDED ENDPOINT: Kd (nM)
Please respond with the number in nM and leave the unit unwritten.

The measured Kd associated with "RVNKGTGVK" reads 1.81

====

TEST TARGET: HLA-A*24:02
PROTOCOL DESCRIPTION: IEDB peptide-MHC binding, purified MHC/direct/fluorescence; filed as Kd, often an IC50 or EC50 that approximates it; bounds were set here for any values at or beyond the usual limits of such assays
ASSAY CONDITIONS: source organism: Giardia lamblia ATCC 50803
RECORDED ENDPOINT: Kd

// Kd lookup, sequence = "LERIKANIF" , result: ≥ 20 µM

====

TEST TARGET: HLA-A*02:03
PROTOCOL DESCRIPTION: IEDB peptide-MHC binding, purified MHC/competitive/radioactivity; filed as Kd, often an IC50 or EC50 that approximates it; bounds were set here for any values at or beyond the usual limits of such assays
ASSAY CONDITIONS: source organism: Homo sapiens
RECORDED ENDPOINT: Kd (nM)
The figure you give is taken to be in nM; do not add the unit.

SLIGSKTQI
23.8

Kindly review the next sequence as well.
Recorded Kd (sequence "NLPIYSEEI" ): 390

====

TEST TARGET: HLA-A*31:01
PROTOCOL DESCRIPTION: IEDB peptide-MHC binding, purified MHC/direct/fluorescence; filed as Kd, often an IC50 or EC50 that approximates it; bounds were set here for any values at or beyond the usual limits of such assays
ASSAY CONDITIONS: source organism: Pasteurella multocida
pKd: −log10 of the molar value.
RECORDED ENDPOINT: pKd

The measured pKd associated with "VMLDWGIEL" reads ≤ 4.70

====

TEST TARGET: HLA-B*18:01
PROTOCOL DESCRIPTION: IEDB peptide-MHC binding, purified MHC/direct/fluorescence; filed as Kd, often an IC50 or EC50 that approximates it; bounds were set here for any values at or beyond the usual limits of such assays
ASSAY CONDITIONS: source organism: Burkholderia ambifaria AMMD
RECORDED ENDPOINT: pKd
Note on pKd: it is the negative log10 of concentration, concentration in mol/L.

The recorded pKd for "DELPFVAPV" is 9.22
